System: KM12 colon
Assay: NCI tumour cell line growth inhibition, 48 h
Listed next: entries and their corresponding TGI.

Molecule	Censor symbol	TGI / µM
CCCCCCCCCCCCC1N=C(N)N2CCCC2=C1C(=O)OC (centres undefined)	=	3.94
Cc1ccc(S(=O)(=O)N2CCC(C(=O)O)(c3ccccc3)CC2)cc1	>	100
CC1(Cl)CC(C)(/C=C/Cl)C(Cl)CC1Cl (centres undefined)	=	31.3
O=CC1=CCC2c3[nH]c4ccccc4c3CCN2C1 (centres undefined)	=	153
C#CC#CC#CC#CC#CC#CC#CC#CC[C@@H]1OC[C@@H](COC(=O)O[C@@H](C(=O)O[C@H]2C[C@@]3(O)[C@@H](OC(=O)c4ccccc4)[C@@H]4[C@]5(OC(C)=O)CO[C@@H]5C[C@H](O)[C@@]4(C)C(=O)[C@H](OC(C)=O)C(=C2C)C3(C)C)[C@@H](NC(=O)c2ccccc2)c2ccccc2)O1	>	33.3
c1ccc(-c2c(-c3[nH]c4ccccc4c3-c3ccccc3)[nH]c3ccccc23)cc1	=	11.8
CN(C)c1ccc(C2CC(C)(O)Oc3cc4c(cc32)OCO4)cc1 (centres undefined)	>	100
CC1CC(C)C(C(O)CC2CC(=O)N(c3ccccc3)C(=O)C2)C(O)C1 (centres undefined)	>	100
Cn1ccnc1C(=O)/C=C/c1ccc(C(=O)Nc2c(F)c(F)c(F)c(F)c2F)cc1	=	2.71
